biological target: protein kinase C beta-1 (Homo sapiens, UniProt P05771); experiment: PKC Enzyme assay, beta I isozyme; type: biochemical; settings: PKC beta-1; 30 μM ATP, 30° C., 10 minutes; read-out: IC50 β1
Sequence (P05771 whole entry): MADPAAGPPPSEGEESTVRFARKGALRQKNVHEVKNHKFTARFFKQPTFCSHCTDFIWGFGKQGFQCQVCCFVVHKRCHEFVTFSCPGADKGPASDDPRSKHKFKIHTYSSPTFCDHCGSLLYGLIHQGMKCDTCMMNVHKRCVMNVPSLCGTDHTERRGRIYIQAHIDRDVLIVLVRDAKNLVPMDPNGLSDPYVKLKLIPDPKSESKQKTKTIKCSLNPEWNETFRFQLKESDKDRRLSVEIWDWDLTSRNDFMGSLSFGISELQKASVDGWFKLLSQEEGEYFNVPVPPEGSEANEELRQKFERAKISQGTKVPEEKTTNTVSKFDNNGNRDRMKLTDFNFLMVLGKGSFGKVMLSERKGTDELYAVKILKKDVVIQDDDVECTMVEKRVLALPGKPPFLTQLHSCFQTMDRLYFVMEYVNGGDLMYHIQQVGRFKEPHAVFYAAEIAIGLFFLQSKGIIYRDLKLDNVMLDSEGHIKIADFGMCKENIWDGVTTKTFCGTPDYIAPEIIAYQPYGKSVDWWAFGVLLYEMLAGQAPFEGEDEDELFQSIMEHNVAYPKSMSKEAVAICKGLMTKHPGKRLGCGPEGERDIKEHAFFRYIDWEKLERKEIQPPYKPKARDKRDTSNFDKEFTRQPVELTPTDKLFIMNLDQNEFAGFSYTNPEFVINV
pIC50: −log10 of the molar value.
reportedProperty: pIC50

Cn1cc(C2=C(c3cn(C4CN(C(c5ccccc5)c5ccccc5)C4)c4ccccc34)C(=O)NC2=O)c2ccccc21 :: 5.04
Cn1cc(C2=C(c3cn(CCOC4C[C@@H](N=[N+]=[N-])[C@@H](CO)O4)c4ccccc34)C(=O)NC2=O)c2ccccc21 (stereo partly drawn) :: 6.70
Cn1cc(C2=C(c3cn(CCOC4O[C@H](CO)[C@@H](O)[C@@H](O)[C@H]4N=[N+]=[N-])c4ccccc34)C(=O)NC2=O)c2ccccc21 (stereo partly drawn) :: 6.74

* * *

target: protein kinase C eta (Homo sapiens); test: PKC Enzyme assay, eta isozyme; assay type: biochemical; conditions: PKC eta; 30 μM ATP, 30° C., 10 minutes; read-out: IC50 η
Sequence (P24723 whole entry): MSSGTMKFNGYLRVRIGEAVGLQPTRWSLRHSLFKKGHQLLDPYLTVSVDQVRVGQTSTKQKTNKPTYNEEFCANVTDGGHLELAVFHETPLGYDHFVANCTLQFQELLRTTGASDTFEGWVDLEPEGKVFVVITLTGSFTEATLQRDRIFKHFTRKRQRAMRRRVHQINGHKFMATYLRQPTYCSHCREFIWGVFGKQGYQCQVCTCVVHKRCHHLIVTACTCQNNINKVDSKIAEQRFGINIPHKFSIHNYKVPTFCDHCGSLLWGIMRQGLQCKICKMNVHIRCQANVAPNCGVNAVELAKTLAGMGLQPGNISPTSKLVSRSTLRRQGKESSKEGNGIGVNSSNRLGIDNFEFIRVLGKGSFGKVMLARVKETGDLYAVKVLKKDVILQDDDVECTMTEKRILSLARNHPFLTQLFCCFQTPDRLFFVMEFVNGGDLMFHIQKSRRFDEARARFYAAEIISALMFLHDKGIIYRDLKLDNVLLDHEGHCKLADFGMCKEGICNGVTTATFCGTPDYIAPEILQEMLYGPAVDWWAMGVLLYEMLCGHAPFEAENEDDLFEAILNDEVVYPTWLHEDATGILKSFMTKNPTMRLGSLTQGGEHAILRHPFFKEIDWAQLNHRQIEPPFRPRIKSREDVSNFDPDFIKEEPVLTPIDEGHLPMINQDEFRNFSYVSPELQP
pIC50: −log10 of the molar value.
The following molecules are listed with their measured pIC50 values.
reportedProperty: pIC50

Cn1cc(C2=C(c3cn(C4CCN(c5ccccn5)CC4)c4ccccc34)C(=O)NC2=O)c2ccccc21 [Example 48] :: 5.70
Cn1cc(C2=C(c3cn(C4CCN(Cc5ccccc5)CC4)c4ccccc34)C(=O)NC2=O)c2ccccc21 [Example 47] :: 6.30
Cc1c(C2=C(c3c(C)n(CN(C)C)c4ccccc34)C(=O)NC2=O)c2ccccc2n1CCCN(C)C [Example 16] :: 5.25
Cn1cc(C2=C(c3c[nH]c4ccccc34)C(=O)NC2=O)c2ccccc21 [Example 12] :: 6.28
Cn1cc(C2=C(c3c4n(c5ccccc35)CCC(CO)(CO)C4)C(=O)NC2=O)c2ccccc21 [Example 2] :: 5.24
CC(=O)OCC1(COC(C)=O)CCn2c(c(C3=C(c4cn(C)c5ccccc45)C(=O)NC3=O)c3ccccc32)C1 [Example 1] :: 3.92
CCOC(=O)N1CCC(Cn2cc(C3=C(c4cn(C)c5ccccc45)C(=O)NC3=O)c3ccccc32)CC1 [Example 69] :: 5.51
Cn1cc(C2=C(c3cn(C4CCOC4)c4ccccc34)C(=O)NC2=O)c2ccccc21 (centres unmarked) [Example 64] :: 7.40

* * *

target: protein kinase C alpha (Homo sapiens, UniProt P17252); experiment: PKC Enzyme assay, alpha isozyme; type: biochemical; settings: PKC alpha; 30 μM ATP, 30° C., 10 minutes; read-out: IC50 α
Listed below: IC50 values for each entry.
reportedProperty: IC50 (µM)

CC(C)(C)OC(=O)N1CCC(n2cc(C3=C(c4c[nH]c5ccccc45)C(=O)NC3=O)c3ccccc32)CC1 [Example 7] :: 3.3
Cn1cc(C2=C(c3cn(CCOC4OC(CN)C(O)C(O)C4O)c4ccccc34)C(=O)NC2=O)c2ccccc21 (stereo not drawn) [Example 66] :: 9
Cn1cc(C2=C(c3cn(CCO[C@@H]4C[C@H](O)[C@@H](CN=[N+]=[N-])O4)c4ccccc34)C(=O)NC2=O)c2ccccc21 [Example 58] :: 4.9
CC(=O)NC[C@H]1O[C@H](OCCn2cc(C3=C(c4cn(C)c5ccccc45)C(=O)NC3=O)c3ccccc32)C[C@@H]1O [Example 3] :: 0.32
Cn1cc(C2=C(c3cn(CCOC4O[C@H](CO)[C@@H](O)[C@@H](O)[C@H]4N=[N+]=[N-])c4ccccc34)C(=O)NC2=O)c2ccccc21 (stereo partly drawn) [Example 60] :: 4.5
CCOC(=O)CN1CCC(n2cc(C3=C(c4cn(C)c5ccccc45)C(=O)NC3=O)c3ccccc32)CC1 [Example 38] :: 1
